Provide the reported hCB2 Ca Span of each item.
- experimental_system: human CB2 (Homo sapiens (Human))
- assay_notes: In vitro cannabinoid receptor activity assay (calcium mobilization, FLIPR) in CHO cells expressing human CB2 and Gαq16
- Type: cell-based
- condition_description: percentage of the maximum CP55940 signal, hCB2
Report the figure in % without appending any unit label.

**Query** # assay system human CB2 (Homo sapiens (Human)): give hCB2 Ca Span of CC(C)(NC(=O)c1nn(CCCCCF)c2ccccc12)c1cccc(NC(N)=O)c1 [Example 25]
**Result** 51

**Query** # assay system human CB2 (Homo sapiens (Human)): give hCB2 Ca Span of CC(C)(NC(=O)c1cn(Cc2ccc(F)cc2)c2ccccc12)c1cccc(C(N)=O)c1 [Example 33]
**Result** 30

**Query** # assay system human CB2 (Homo sapiens (Human)): give hCB2 Ca Span of C[C@@H](NC(=O)c1nn(Cc2ccc(F)cc2)c2ccccc12)c1cccc(C(N)=O)c1 [Example 10]
**Result** 25

**Query** # assay system human CB2 (Homo sapiens (Human)): give hCB2 Ca Span of CC(C)(NC(=O)c1nn(Cc2ccc(F)cc2)c2ccccc12)c1cccc(C(N)=O)c1 [Example 12]
**Result** 41

**Query** # assay system human CB2 (Homo sapiens (Human)): give hCB2 Ca Span of C[C@H](NC(=O)c1nn(Cc2ccc(F)cc2)c2ccccc12)c1cccc(C(N)=O)c1 [Example 11]
**Result** 48

**Query** # assay system human CB2 (Homo sapiens (Human)): give hCB2 Ca Span of CCCCCn1nc(C(=O)NC(C)(C)c2cccc(NC(=O)NC)c2)c2ccccc21 [Example 27]
**Result** 55

**Query** # assay system human CB2 (Homo sapiens (Human)): give hCB2 Ca Span of CC(C)(NC(=O)c1nn(CCCCCF)c2ccccc12)c1cccc(C(N)=O)c1 [Example 18]
**Result** 35
